# System: DLD1
# assay_explanation: TCF/Wnt firefly luciferase reporter signal relative to plate median (fraction of plate median); higher = higher Wnt reporter signal
# cond: 10 µM; treatment time 24 h; reporter: TCF4/Wnt
parameter: TCF/Wnt firefly luciferase reporter signal

[[record]]
compound = "CN1CCN(C2CCN(C(=O)Nc3cc(Oc4ccc(NC(=O)C5(C(=O)Nc6ccc(F)cc6)CC5)c(F)c4)ccn3)CC2)CC1 [Golvatinib (E7050)]"
observed_measurement = 0.728

[[record]]
compound = "CNC(=O)c1ccccc1Sc1ccc2c(/C=C/c3ccccn3)n[nH]c2c1 [Axitinib]"
observed_measurement = 1.97

[[record]]
compound = "O=c1c(O)c(-c2ccc(O)c(O)c2)oc2cc(O)cc(O)c12 [Quercetin (Sophoretin)]"
observed_measurement = 1.04

[[record]]
compound = "CC[C@H](CO)Nc1nc(NCc2ccccc2)c2ncn(C(C)C)c2n1 [Roscovitine (Seliciclib, CYC202)]"
observed_measurement = 1.46

[[record]]
compound = "CCS(=O)(=O)N1CC(CC#N)(n2cc(-c3ncnc4[nH]ccc34)cn2)C1"
observed_measurement = 0.764

[[record]]
compound = "Oc1cc(O)cc(/C=C/c2ccc(O)c(O)c2)c1 [Piceatannol]"
observed_measurement = 1.66

[[record]]
compound = "CCc1cc2c(cc1N1CCC(N3CCOCC3)CC1)C(C)(C)c1[nH]c3cc(C#N)ccc3c1C2=O"
observed_measurement = 1.05

[[record]]
compound = "COc1cc2ncnc(Nc3cccc(Br)c3)c2cc1OC"
observed_measurement = 0.58

[[record]]
compound = "C[C@H](NC(=O)/C(C#N)=C/c1cccc(Br)n1)c1ccccc1"
observed_measurement = 0.057

